Reference source: the supplement of paper PMC10567573

variants and their reported protein stability index
B1: SERPINB5 (parent)
chain: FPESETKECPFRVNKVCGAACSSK

- Variants of: B1
- assay_comment: protein stability index of a GFP-peptide fusion (GPS, HEK-293T) (PSI 1-6); higher = more stable;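 also: lentivirally expressed fusions sorted by FACS into six bins by GFP to DsRed ratio, PSI derived from sequencing read proportions per bin multiplied by bin number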
- run_parameters: c terminus: a fixed tail appended

variant_description | protein stability index
R12V | 2.43
K15T | 2.48
R12C | 4.62
P2S | 3.66
V13T | 3.54
P2N | 3.63
S23N | 2.96
E8F | 1.97
S4W | 2.03
A20T | 3.22
P10S | 3.96
N14T | 2.5
F11A | 4.43
C17N | 2.99
K7W | 1.34
E3F | 1.75
E8P | 2.29
E5K | 1.67
G18D | 2.89
S23P | 2.39
C21G | 2.69
G18E | 2.6
